Please go through the items and note down their RBC.
Conditions: mouse, in vivo, sc, 50 mg/kg
e = 2'-O-(2-methoxyethyl) (MOE); d = 2'-deoxy (DNA)
Form field (numeric): enter value without unit.

IN: Requested read-out: RBC. Entry: ISIS 445509: 5-8-5 or 6-8-6 MOE microwalk gapmer (Table 44) (antisense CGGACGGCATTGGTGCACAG; sugars from the 5' end e6 d8 e6, backbone and methylation of C not given here)
OUT: 10.2

IN: I have this substance here, ISIS 445503: 5-8-5 or 6-8-6 MOE microwalk gapmer (Table 44) (antisense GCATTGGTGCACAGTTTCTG; sugars from the 5' end e6 d8 e6, backbone and methylation of C not given here) , and I need its recorded RBC.
OUT: 9.2

IN: Param item = ISIS 445504: 5-8-5 or 6-8-6 MOE microwalk gapmer (Table 44) (antisense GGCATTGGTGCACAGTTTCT; sugars from the 5' end e6 d8 e6, backbone and methylation of C not given here) ; retrieve measured RBC.
OUT: 9.6

IN: Item ISIS 445505: 5-8-5 or 6-8-6 MOE microwalk gapmer (Table 44) (antisense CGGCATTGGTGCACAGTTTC; sugars from the 5' end e6 d8 e6, backbone and methylation of C not given here) has what recorded RBC?
OUT: 9.6

====

System: human Factor 11 mRNA
Experiment: Antisense inhibition of human Factor 11 in HepG2 cells by microwalk gapmers, lipofectin, 75 nM (Example 3)
Format: cell-based
Details: HepG2 cells, lipofectin, gapmers targeted to nucleobases 1275 to 1318 of SEQ ID NO: 1
Strand notation (5' to 3'): a small letter for the sugar, then the base; units joined by * are phosphorothioate-linked, units joined directly phosphodiester-linked; [ ] holds rarer units or linkages, { } end groups; capitals alone tell only the bases. e = 2'-O-(2-methoxyethyl) (MOE); [5mC] = 5-methylcytosine; d = 2'-deoxy (DNA)
MEASURED_QUANTITY: % inhibition (%)
The figure you give is taken to be in %; do not add the unit.

IN: // % inhibition lookup, key: 416941 (antisense eG*eG*e[5mC]*dA*dG*d[5mC]*dG*dG*dA*d[5mC]*dG*dG*d[5mC]*dA*dT*dT*dG*eG*eT*eG) [compound 416941]
OUT: 95

IN: Entry under review: 416861 (antisense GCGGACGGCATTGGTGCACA; 5-10-5 gapmer, further chemistry not given here) [compound 416861] . Reported % inhibition?
OUT: 92

IN: What value of % inhibition has been reported for the following substance? 416920 (antisense eA*e[5mC]*eA*dG*dT*dT*dT*d[5mC]*dT*dG*dG*d[5mC]*dA*dG*dG*d[5mC]*d[5mC]*eT*e[5mC]*eG) [compound 416920]
OUT: 88

IN: Dear colleague, I am looking for the recorded % inhibition of the following substance: 416928 (antisense eA*eT*eT*dG*dG*dT*dG*d[5mC]*dA*d[5mC]*dA*dG*dT*dT*dT*d[5mC]*dT*eG*eG*e[5mC]) [compound 416928]
OUT: 91

IN: Data request, read-out % inhibition, for 416997 (antisense eA*e[5mC]*dA*dG*dT*dT*dT*d[5mC]*dT*dG*dG*d[5mC]*dA*dG*dG*e[5mC]*e[5mC]*eT*e[5mC]*eG) [compound 416997]
OUT: 84

IN: Dear colleague, I am looking for the recorded % inhibition of the following substance: 416998 (antisense e[5mC]*eA*d[5mC]*dA*dG*dT*dT*dT*d[5mC]*dT*dG*dG*d[5mC]*dA*dG*eG*e[5mC]*e[5mC]*eT*e[5mC]) [compound 416998]
OUT: 88

IN: Bench note: what % inhibition did 416929 (antisense e[5mC]*eA*eT*dT*dG*dG*dT*dG*d[5mC]*dA*d[5mC]*dA*dG*dT*dT*dT*d[5mC]*eT*eG*eG) [compound 416929] show?
OUT: 83

IN: Entry 417008 (antisense eG*eG*d[5mC]*dA*dT*dT*dG*dG*dT*dG*d[5mC]*dA*d[5mC]*dA*dG*eT*eT*eT*e[5mC]*eT) [compound 417008] has what % inhibition?
OUT: 82

IN: What value of % inhibition has been reported for the following substance? 416937 (antisense eG*e[5mC]*eG*dG*dA*d[5mC]*dG*dG*d[5mC]*dA*dT*dT*dG*dG*dT*dG*d[5mC]*eA*e[5mC]*eA) [compound 416937]
OUT: 93

IN: Value lookup for % inhibition; key = 416863 (antisense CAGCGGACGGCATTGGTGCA; 5-10-5 gapmer, further chemistry not given here) [compound 416863]
OUT: 83

IN: For the substance shown here, 412225 (antisense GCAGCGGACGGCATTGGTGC; 5-10-5 MOE gapmer, further chemistry not given here) [compound 412225] , give the reported % inhibition.
OUT: 86

IN: Any idea what % inhibition was measured for 416925 (antisense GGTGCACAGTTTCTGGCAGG; 3-14-3 gapmer chemistry, further chemistry not given here) [compound 416925] ?
OUT: 98

IN: Using the record for 417006 (antisense e[5mC]*eA*dT*dT*dG*dG*dT*dG*d[5mC]*dA*d[5mC]*dA*dG*dT*dT*eT*e[5mC]*eT*eG*eG) [compound 417006] , report its % inhibition.
OUT: 81

IN: Fill blank: measured % inhibition of the substance 416867 (antisense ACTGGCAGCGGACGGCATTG; 5-10-5 gapmer, further chemistry not given here) [compound 416867] is ____.
OUT: 83

IN: Need % inhibition of 416857 (antisense e[5mC]*eG*eG*e[5mC]*eA*dT*dT*dG*dG*dT*dG*d[5mC]*dA*d[5mC]*dA*eG*eT*eT*eT*e[5mC]) [compound 416857] , thanks.
OUT: 92

IN: Value lookup for % inhibition; key = 416850 (antisense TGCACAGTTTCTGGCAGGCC; 5-10-5 gapmer, further chemistry not given here) [compound 416850]
OUT: 93

IN: Which % inhibition value belongs to 416855 (antisense e[5mC]*eA*eT*eT*eG*dG*dT*dG*d[5mC]*dA*d[5mC]*dA*dG*dT*dT*eT*e[5mC]*eT*eG*eG) [compound 416855] ?
OUT: 87

IN: State the recorded % inhibition for this entry: 417005 (antisense eA*eT*dT*dG*dG*dT*dG*d[5mC]*dA*d[5mC]*dA*dG*dT*dT*dT*e[5mC]*eT*eG*eG*e[5mC]) [compound 417005]
OUT: 79

IN: # lookup: % inhibition of 416943 (antisense e[5mC]*eT*eG*dG*d[5mC]*dA*dG*d[5mC]*dG*dG*dA*d[5mC]*dG*dG*d[5mC]*dA*dT*eT*eG*eG) [compound 416943]
OUT: 92

IN: What does the data say about its % inhibition? Entry: 417015 (antisense eA*eG*d[5mC]*dG*dG*dA*d[5mC]*dG*dG*d[5mC]*dA*dT*dT*dG*dG*eT*eG*e[5mC]*eA*e[5mC]) [compound 417015]
OUT: 87

IN: For the substance 417011 (antisense eG*eA*d[5mC]*dG*dG*d[5mC]*dA*dT*dT*dG*dG*dT*dG*d[5mC]*dA*e[5mC]*eA*eG*eT*eT) [compound 417011] , what % inhibition is on record?
OUT: 86

IN: I'd like to know its % inhibition. The substance in question is 417003 (antisense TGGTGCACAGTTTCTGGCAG; 2-13-5 gapmer chemistry, further chemistry not given here) [compound 417003]
OUT: 89

====

Tested on: human Factor 11 mRNA
Assay: Dose-dependent inhibition of human Factor 11 in HepG2 cells, electroporation 123.46-10,000 nM (Example 31)
Type: cell-based
Conditions: electroporation, 1,111.11 nM, approx. 16 hours, relative to untreated control cells
Strand notation (5' to 3'): a small letter for the sugar, then the base; units joined by * are phosphorothioate-linked, units joined directly phosphodiester-linked; [ ] holds rarer units or linkages, { } end groups; capitals alone tell only the bases. e = 2'-O-(2-methoxyethyl) (MOE); [5mC] = 5-methylcytosine; d = 2'-deoxy (DNA)
MEASURED_QUANTITY: Percent inhibition of Factor 11 mRNA at 1,111.11 nM (%)
Give the quantity in %, number only.

IN: Quick one: Percent inhibition of Factor 11 mRNA at 1,111.11 nM of 416858 (antisense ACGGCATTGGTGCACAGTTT; 5-10-5 gapmer, further chemistry not given here) [compound 416858] ?
OUT: 36

IN: Requested read-out: Percent inhibition of Factor 11 mRNA at 1,111.11 nM. Entry: 445498 (antisense eG*eG*eT*eG*e[5mC]*eA*d[5mC]*dA*dG*dT*dT*dT*d[5mC]*dT*eG*eG*e[5mC]*eA*eG*eG) [compound 445498]
OUT: 27

IN: Report Percent inhibition of Factor 11 mRNA at 1,111.11 nM for 416861 (antisense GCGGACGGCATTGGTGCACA; 5-10-5 gapmer, further chemistry not given here) [compound 416861] please.
OUT: 27

IN: Using the record for 445531 (antisense eG*eG*e[5mC]*eA*eT*dT*dG*dG*dT*dG*d[5mC]*dA*d[5mC]*eA*eG*eT*eT*eT) [compound 445531] , report its Percent inhibition of Factor 11 mRNA at 1,111.11 nM.
OUT: 52

IN: Param item = 445522 (antisense eG*e[5mC]*eA*e[5mC]*eA*dG*dT*dT*dT*d[5mC]*dT*dG*dG*e[5mC]*eA*eG*eG*e[5mC]) [compound 445522] ; retrieve measured Percent inhibition of Factor 11 mRNA at 1,111.11 nM.
OUT: 44

IN: Give its Percent inhibition of Factor 11 mRNA at 1,111.11 nM value. Item: 416860 (antisense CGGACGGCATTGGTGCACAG; 5-10-5 gapmer, further chemistry not given here) [compound 416860]
OUT: 39

IN: What does the data say about its Percent inhibition of Factor 11 mRNA at 1,111.11 nM? Entry: 416856 (antisense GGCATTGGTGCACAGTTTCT; 5-10-5 gapmer, further chemistry not given here) [compound 416856]
OUT: 35

IN: Returns the measured Percent inhibition of Factor 11 mRNA at 1,111.11 nM for the input substance. Input: 445505 (antisense e[5mC]*eG*eG*e[5mC]*eA*eT*dT*dG*dG*dT*dG*d[5mC]*dA*d[5mC]*eA*eG*eT*eT*eT*e[5mC]) [compound 445505]
OUT: 39

IN: Which Percent inhibition of Factor 11 mRNA at 1,111.11 nM value is on record for 416857 (antisense e[5mC]*eG*eG*e[5mC]*eA*dT*dT*dG*dG*dT*dG*d[5mC]*dA*d[5mC]*dA*eG*eT*eT*eT*e[5mC]) [compound 416857] ?
OUT: 35

IN: For the substance shown here, 445532 (antisense e[5mC]*eG*eG*e[5mC]*eA*dT*dT*dG*dG*dT*dG*d[5mC]*dA*e[5mC]*eA*eG*eT*eT) [compound 445532] , give the reported Percent inhibition of Factor 11 mRNA at 1,111.11 nM.
OUT: 39

IN: Recorded Percent inhibition of Factor 11 mRNA at 1,111.11 nM for 445503 (antisense eG*e[5mC]*eA*eT*eT*eG*dG*dT*dG*d[5mC]*dA*d[5mC]*dA*dG*eT*eT*eT*e[5mC]*eT*eG) [compound 445503] , please?
OUT: 22

IN: Fill in: Percent inhibition of Factor 11 mRNA at 1,111.11 nM of 416849 (antisense eG*e[5mC]*eA*e[5mC]*eA*dG*dT*dT*dT*d[5mC]*dT*dG*dG*d[5mC]*dA*eG*eG*e[5mC]*e[5mC]*eT) [compound 416849] is ___
OUT: 26
